percent response of DMSO control values for the molecules below.
assay: modulators of CIT2-GFP expression in yeast, primary screen, S. cerevisiae, GFP fusion, multiplex flow cytometry (AID 1870); details: 3 h, at 10 µM, stronger effect = higher value;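 also: barcoded CIT2-GFP strain pooled with four other GFP strains with rapamycin as positive control; median GFP fluorescence per well over plate mean of DMSO wells so 100% = DMSO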
Respond with the bare value in %.

In the examples that follow, each entry is paired with its recorded percent response of DMSO control.
CNCCC=C1c2ccccc2CCc2ccccc21 :: 110
O=[N+]([O-])c1cc(/C=N/n2cnnc2)ccc1N1CCCC1 :: 97.9
c1ccc2c(c1)CCCC2C1=NCCN1 (configuration not stated) :: 102

percent response of DMSO control reading for CCOc1cccc(N2C(=O)CC(N(CCc3ccc(OC)c(OC)c3)C(=O)CC)C2=O)c1 (configuration not stated) : 104

Per the records, this molecule ( "COC(=O)CN1CC(=O)N(c2ccccc2)C1=S" ) has percent response of DMSO control equal to 97.9

Just so you know, measured percent response of DMSO control for "CCOC(=O)C1(CCCc2ccccc2)CCN(C2CCN(C(C)=O)CC2)CC1" came out at 99.8
